All figures here come from patent US11505575B2.

Some compounds, each annotated with its measured IC50.
Biological target: human PCSK9 / human LDLR EGFa domain interaction (Homo sapiens, UniProt Q8NBP7)
Sequence (Q8NBP7 153-692): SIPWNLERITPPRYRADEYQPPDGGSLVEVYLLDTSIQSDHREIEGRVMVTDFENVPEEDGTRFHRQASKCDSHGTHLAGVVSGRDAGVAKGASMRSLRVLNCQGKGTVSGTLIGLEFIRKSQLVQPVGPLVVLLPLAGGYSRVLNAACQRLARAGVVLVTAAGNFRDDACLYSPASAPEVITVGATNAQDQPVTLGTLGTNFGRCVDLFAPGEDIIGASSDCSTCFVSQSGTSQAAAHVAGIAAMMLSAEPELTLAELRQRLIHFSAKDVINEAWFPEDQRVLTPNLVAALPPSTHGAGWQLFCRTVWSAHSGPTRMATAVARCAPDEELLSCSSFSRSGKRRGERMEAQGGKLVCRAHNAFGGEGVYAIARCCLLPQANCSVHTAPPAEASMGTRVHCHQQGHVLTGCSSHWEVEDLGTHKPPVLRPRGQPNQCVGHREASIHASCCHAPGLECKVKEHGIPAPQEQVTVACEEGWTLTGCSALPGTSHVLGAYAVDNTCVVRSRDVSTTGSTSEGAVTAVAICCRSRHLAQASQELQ
Sequence (Q8NBP7 31-152 partner limits assumed): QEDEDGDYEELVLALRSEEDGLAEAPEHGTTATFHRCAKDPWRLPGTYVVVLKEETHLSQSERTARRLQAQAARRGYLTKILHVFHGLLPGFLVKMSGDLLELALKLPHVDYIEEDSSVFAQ
Assay: TR-FRET assay of inhibition of the PCSK9-LDLR protein-protein interaction
Settings: 20 nM biotinylated human PCSK9 + 20 nM his-tagged human LDLR EGFa domain, 2 hours room temperature
*1 amine or outer side, *2 acyl side, *3 side chain or, on linkers, in order; H or OH if unused. Where a SMILES comes first, the peptide text is derived from it. Bridges are numbered along the chain shown (N, C = ends). [ ]: non-standard residue; d: D form. Trp(7-aza) = N[C@@H](Cc1c[nH]c2ncccc12)C(=O)O; Pro(4,4-F2) = O=C(O)[C@@H]1CC(F)(F)CN1; mXylylene = c1cc(C[*:1])cc(C[*:2])c1; Tle = CC(C)(C)[C@H](N)C(=O)O; hLys = NCCCCC[C@H](N)C(=O)O; Nva = CCC[C@H](N)C(=O)O; Mpa = O=C(O)CCS
readout: IC50

compound="CCC[C@@H]1NC(=O)[C@H](Cc2c[nH]c3ncccc23)NC(=O)[C@H]([C@@H](C)O)NC(=O)[C@@H]2CC(F)(F)CN2C(=O)[C@H](Cc2ccc(O)cc2)NC(=O)[C@H](C(C)(C)C)NC(=O)CCSCc2cccc(c2)CSC[C@@H](C(N)=O)NC(=O)[C@H]([C@@H](C)O)NC(=O)[C@H](CCC)NC(=O)[C@H](Cc2ccc(O)cc2)NC(=O)[C@H](CCC(=O)O)NC1=O [Compound 004] ([Mpa][Tle]Y[Pro(4,4-F2)]T[Trp(7-aza)][Nva]EY[Nva]TC-NH2; linker 1-12 via mXylylene)" readout=IC50 observed_value="1000 to 12100 nM"
compound="CCC[C@@H]1NC(=O)[C@H](Cc2c[nH]c3ncccc23)NC(=O)[C@H]([C@@H](C)O)NC(=O)[C@H](CCCCCN)NC(=O)[C@H](Cc2ccc(O)cc2)NC(=O)[C@H](C(C)(C)C)NC(=O)CCSCc2cccc(c2)CSC[C@@H](C(N)=O)NC(=O)[C@H]([C@@H](C)O)NC(=O)[C@H](CCC)NC(=O)[C@H](Cc2ccc(O)cc2)NC(=O)[C@H](CCC(=O)O)NC1=O [Compound 062] ([Mpa][Tle]Y[hLys]T[Trp(7-aza)][Nva]EY[Nva]TC-NH2; linker 1-12 via mXylylene)" readout=IC50 observed_value="100 to 1000 nM"
